subject.of.test: CYP2B6 (Homo sapiens)
Sequence (P20813 whole entry): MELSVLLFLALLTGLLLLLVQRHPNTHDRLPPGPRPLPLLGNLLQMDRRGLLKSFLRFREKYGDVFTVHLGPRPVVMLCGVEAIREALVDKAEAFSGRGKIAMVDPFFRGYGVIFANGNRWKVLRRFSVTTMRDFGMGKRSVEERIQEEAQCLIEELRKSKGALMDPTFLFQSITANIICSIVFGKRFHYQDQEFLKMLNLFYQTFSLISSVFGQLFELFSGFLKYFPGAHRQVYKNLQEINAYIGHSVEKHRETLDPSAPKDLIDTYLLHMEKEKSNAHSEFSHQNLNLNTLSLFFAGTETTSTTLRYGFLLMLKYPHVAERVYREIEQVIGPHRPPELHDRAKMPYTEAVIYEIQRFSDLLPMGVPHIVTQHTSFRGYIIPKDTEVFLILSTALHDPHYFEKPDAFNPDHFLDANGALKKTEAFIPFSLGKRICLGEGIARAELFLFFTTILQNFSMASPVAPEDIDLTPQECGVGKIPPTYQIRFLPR
assay.overview: Drug metabolism assessed as human CYP2B6-mediated metabolism by measuring half life
Type: ADME
test.conditions: human CYP2B6 enzyme
metric.name: half-life

Query: half-life; subject: CCS(=O)(=O)c1ccc2oc(-c3ccc4ccccc4c3)nc2c1
≥ 3 h

---

assay.overview: Intrinsic clearance in human liver microsomes in presence of CYP2B6 inhibitor Ticlopidine
Type: ADME, Microsome
test.conditions: with Ticlopidine (CYP2B6 inhibitor), read-out: CLH
metric.name: microsomal CLint (µL/min/mg)
Only the number, expressed in µL/min/mg, is required.

Value lookup for microsomal CLint; key = CCS(=O)(=O)c1ccc2oc(-c3ccc4ccccc4c3)nc2c1
21.4

---

subject.of.test: UniProt P22310
Sequence (P22310 whole entry): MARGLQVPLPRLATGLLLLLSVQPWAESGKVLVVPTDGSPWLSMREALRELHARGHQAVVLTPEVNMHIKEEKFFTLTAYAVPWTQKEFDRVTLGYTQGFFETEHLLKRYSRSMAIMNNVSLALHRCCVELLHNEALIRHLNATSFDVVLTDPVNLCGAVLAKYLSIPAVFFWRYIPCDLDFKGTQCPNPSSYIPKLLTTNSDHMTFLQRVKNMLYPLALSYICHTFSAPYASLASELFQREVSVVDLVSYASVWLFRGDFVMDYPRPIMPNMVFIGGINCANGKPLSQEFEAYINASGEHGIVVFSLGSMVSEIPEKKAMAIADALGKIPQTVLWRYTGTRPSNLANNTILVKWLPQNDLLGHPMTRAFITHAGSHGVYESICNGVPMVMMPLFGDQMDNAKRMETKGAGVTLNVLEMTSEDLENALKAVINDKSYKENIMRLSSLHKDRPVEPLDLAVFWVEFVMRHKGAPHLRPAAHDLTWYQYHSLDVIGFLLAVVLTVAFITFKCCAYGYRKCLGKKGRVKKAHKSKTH
assay.overview: Inhibition of human UGT1A4 assessed as residual enzyme activity at 10 uM relative to control
Format: ADME
test.conditions: read-out: Activity
metric.name: activity at 10 µM
Your reply should be a number followed by the unit it is expressed in.

Entry under review: CCS(=O)(=O)c1ccc2oc(-c3ccc4c(c3)[C@@H](O)[C@H](O)C=C4)nc2c1 . Reported activity at 10 µM?
84%

---

assay.overview: Drug level in rat plasma at 2000 mg/kg, po measured after 24 hrs
Format: ADME, organism-based
test.conditions: in vivo
metric.name: Drug uptake

So what's the measured Drug uptake for this one? CCS(=O)(=O)c1ccc2oc(-c3ccc4ccccc4c3)nc2c1
38 to 89%

---

assay.overview: Half life in mouse liver S9 fraction
Type: ADME, subcellular
# key: entry, value: half-life
Report as a plain number; the unit h is understood.

Past entries and their recorded results:
CCS(=O)(=O)c1ccc2oc(-c3ccc4ccccc4c3)nc2c1 | 1.23
CCS(=O)(=O)c1ccc2oc(-c3ccc4c(c3)[C@@H](O)[C@H](O)C=C4)nc2c1 | 1.87

Continue with the next molecule.
Which half-life is listed for CCS(=O)(=O)c1ccc2oc(-c3ccc4c(c3)C=C[C@H](O)[C@H]4O)nc2c1 ?
0.65

---

subject.of.test: Cytochrome P450 1A2 (Homo sapiens, UniProt P05177)
Sequence (P05177 whole entry): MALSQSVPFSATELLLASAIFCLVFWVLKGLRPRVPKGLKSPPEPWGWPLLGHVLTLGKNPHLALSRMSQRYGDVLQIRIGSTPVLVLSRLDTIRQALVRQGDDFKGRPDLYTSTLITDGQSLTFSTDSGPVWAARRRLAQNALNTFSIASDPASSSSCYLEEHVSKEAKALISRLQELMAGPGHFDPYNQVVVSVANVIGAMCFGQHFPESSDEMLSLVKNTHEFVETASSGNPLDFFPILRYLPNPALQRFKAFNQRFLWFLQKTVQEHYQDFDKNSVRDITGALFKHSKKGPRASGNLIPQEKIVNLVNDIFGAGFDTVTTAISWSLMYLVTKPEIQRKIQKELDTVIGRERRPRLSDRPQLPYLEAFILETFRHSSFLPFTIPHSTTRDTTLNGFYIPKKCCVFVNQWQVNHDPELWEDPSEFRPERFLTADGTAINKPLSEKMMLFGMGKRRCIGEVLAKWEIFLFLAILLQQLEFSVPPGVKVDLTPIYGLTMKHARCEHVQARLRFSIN
metric.name: pIC50
Lab note: report pIC50 as minus log10 of the concentration in molar units, number only.

Quick check: pIC50 on Cytochrome P450 1A2 (Homo sapiens, UniProt P05177), item CCS(=O)(=O)c1ccc2oc(-c3ccc4ccccc4c3)nc2c1 ?
5.27

---

assay.overview: Half life in human liver S9 fraction
Format: ADME, subcellular
metric.name: half-life

CCS(=O)(=O)c1ccc2oc(-c3ccc4c(c3)[C@@H](O)[C@H](O)C=C4)nc2c1 | > 2.3 h
CCS(=O)(=O)c1ccc2oc(-c3ccc4c(c3)C=C[C@H](O)[C@H]4O)nc2c1 | > 2.3 h

Quick check: half-life of CCS(=O)(=O)c1ccc2oc(-c3ccc4ccccc4c3)nc2c1 ?
1.68 h

---

List of Papp values.
assay.overview: Permeability at pH 7.4 by PAMPA
Format: ADME
test.conditions: read-out: permeability
Return type: number; implicit unit ×10⁻⁶ cm/s.

CCS(=O)(=O)c1ccc2oc(-c3ccc4c(c3)[C@@H](O)[C@H](O)C=C4)nc2c1 | 34.4
CCS(=O)(=O)c1ccc2oc(-c3ccc4c(c3)C=C[C@H](O)[C@H]4O)nc2c1 | 33.3

For the next question, use this compound.
What value of Papp has been reported for the following compound? CCS(=O)(=O)c1ccc2oc(-c3ccc4ccccc4c3)nc2c1
9.5

---

Here, each record is paired with measured solubility kinetic data.
assay.overview: Kinetic aqueous solubility of the compound
Type: physicochemical
test.conditions: buffer; read-out: Kinetic_solubility

CCS(=O)(=O)c1ccc2oc(-c3ccc4ccccc4c3)nc2c1 [EZUTROMID] | 1 to 2 µM
CCS(=O)(=O)c1ccc2oc(-c3ccc4c(c3)C=C[C@H](O)[C@H]4O)nc2c1 | 96 µM

--- query ---
Recorded solubility kinetic for CCS(=O)(=O)c1ccc2oc(-c3ccc4c(c3)[C@@H](O)[C@H](O)C=C4)nc2c1 , please?
210 µM

---

# activity at 10 µM values compiled below
subject.of.test: UniProt:O60656
Sequence (O60656 whole entry): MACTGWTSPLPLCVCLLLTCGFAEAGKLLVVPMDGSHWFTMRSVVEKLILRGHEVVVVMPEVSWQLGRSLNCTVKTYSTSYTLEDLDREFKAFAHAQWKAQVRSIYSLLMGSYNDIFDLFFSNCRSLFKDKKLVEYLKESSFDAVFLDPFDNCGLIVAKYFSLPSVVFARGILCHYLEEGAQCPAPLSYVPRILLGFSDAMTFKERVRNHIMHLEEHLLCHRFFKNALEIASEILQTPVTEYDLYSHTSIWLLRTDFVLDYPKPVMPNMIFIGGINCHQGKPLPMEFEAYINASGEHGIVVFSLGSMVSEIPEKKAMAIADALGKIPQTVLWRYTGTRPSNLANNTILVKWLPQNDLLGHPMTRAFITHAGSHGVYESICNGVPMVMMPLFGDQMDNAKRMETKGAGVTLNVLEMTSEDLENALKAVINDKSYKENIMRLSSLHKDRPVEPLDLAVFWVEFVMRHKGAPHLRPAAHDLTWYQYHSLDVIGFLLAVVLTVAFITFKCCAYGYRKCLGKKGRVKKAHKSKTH
assay.overview: Inhibition of human UGT1A9 assessed as residual enzyme activity at 10 uM relative to control
Type: ADME
test.conditions: read-out: Activity
Give just the numeric value; % need not be written.

CCS(=O)(=O)c1ccc2oc(-c3ccc4c(c3)[C@@H](O)[C@H](O)C=C4)nc2c1 | 45

Please report the recorded activity at 10 µM for CCS(=O)(=O)c1ccc2oc(-c3ccc4c(c3)C=C[C@H](O)[C@H]4O)nc2c1 .
12

---

assay.overview: Half life in mouse hepatocytes
Assay type: ADME, cell-based, Hepatocyte
metric.name: half-life (h)
// units = h; emit number, no label

CCS(=O)(=O)c1ccc2oc(-c3ccc4c(c3)[C@@H](O)[C@H](O)C=C4)nc2c1 | 2.38

Suppose we examine the molecule CCS(=O)(=O)c1ccc2oc(-c3ccc4c(c3)C=C[C@H](O)[C@H]4O)nc2c1 ; what half-life value has been reported?
0.117

---

subject.of.test: UniProt P08684
Sequence (P08684 whole entry): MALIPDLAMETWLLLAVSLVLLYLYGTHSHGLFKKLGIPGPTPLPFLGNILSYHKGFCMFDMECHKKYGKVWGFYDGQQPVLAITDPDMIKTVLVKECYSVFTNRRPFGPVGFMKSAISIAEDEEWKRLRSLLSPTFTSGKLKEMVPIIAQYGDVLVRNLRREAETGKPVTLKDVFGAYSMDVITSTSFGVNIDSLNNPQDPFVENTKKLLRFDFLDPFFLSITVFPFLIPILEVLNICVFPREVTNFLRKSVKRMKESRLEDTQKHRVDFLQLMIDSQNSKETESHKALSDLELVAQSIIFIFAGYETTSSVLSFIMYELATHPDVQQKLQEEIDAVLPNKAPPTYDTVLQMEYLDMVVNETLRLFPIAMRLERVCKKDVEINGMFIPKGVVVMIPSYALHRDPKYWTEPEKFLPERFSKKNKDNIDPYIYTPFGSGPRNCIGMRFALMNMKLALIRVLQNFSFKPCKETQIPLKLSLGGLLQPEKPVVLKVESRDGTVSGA
assay.overview: Drug metabolism assessed as human CYP3A4-mediated metabolism by measuring half life
Format: ADME
test.conditions: human CYP3A4 enzyme
metric.name: half-life

Request the reported half-life associated with CCS(=O)(=O)c1ccc2oc(-c3ccc4ccccc4c3)nc2c1
≥ 3 h

---

subject.of.test: CYP2C19 (Homo sapiens, UniProt P33261)
Sequence (P33261 whole entry): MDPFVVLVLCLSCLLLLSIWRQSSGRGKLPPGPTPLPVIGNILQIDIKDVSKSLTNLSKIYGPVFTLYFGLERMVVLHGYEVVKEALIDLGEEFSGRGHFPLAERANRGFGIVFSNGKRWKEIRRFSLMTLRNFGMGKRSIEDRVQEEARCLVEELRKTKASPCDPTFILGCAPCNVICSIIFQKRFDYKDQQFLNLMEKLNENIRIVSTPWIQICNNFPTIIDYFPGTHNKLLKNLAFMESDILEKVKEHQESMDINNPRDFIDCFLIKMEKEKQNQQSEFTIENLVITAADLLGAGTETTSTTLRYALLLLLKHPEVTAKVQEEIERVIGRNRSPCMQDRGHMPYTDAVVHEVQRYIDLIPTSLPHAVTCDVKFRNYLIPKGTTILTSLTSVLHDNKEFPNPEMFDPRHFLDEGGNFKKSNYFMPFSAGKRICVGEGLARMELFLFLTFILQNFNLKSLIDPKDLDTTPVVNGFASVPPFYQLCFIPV
assay.overview: Drug metabolism assessed as human CYP2C19-mediated metabolism by measuring half life
Type: ADME
test.conditions: human CYP2C19 enzyme
metric.name: half-life

Quick one: half-life for CCS(=O)(=O)c1ccc2oc(-c3ccc4ccccc4c3)nc2c1 ?
≥ 3 h

---

assay.overview: Protein binding in mouse plasma assessed as bound fraction
Assay type: ADME, cell-free
test.conditions: read-out: PPB (converted)
metric.name: fraction unbound
Number, no unit, nothing else.

CCS(=O)(=O)c1ccc2oc(-c3ccc4c(c3)[C@@H](O)[C@H](O)C=C4)nc2c1 | 0.077

Consider the record given below.
Request the reported fraction unbound associated with CCS(=O)(=O)c1ccc2oc(-c3ccc4ccccc4c3)nc2c1
0.005

---

assay.overview: Intrinsic clearance in human liver microsomes in presence of CYP2D6 inhibitor Quinidine
Type: ADME, Microsome
test.conditions: with Quinidine (CYP2D6 inhibitor), read-out: CLH
metric.name: microsomal CLint
Give the number first and the unit second.

// microsomal CLint lookup, key: CCS(=O)(=O)c1ccc2oc(-c3ccc4ccccc4c3)nc2c1
35.1 µL/min/mg

---

subject.of.test: Multidrug and toxin extrusion protein 1 (Homo sapiens)
Sequence (Q96FL8 whole entry): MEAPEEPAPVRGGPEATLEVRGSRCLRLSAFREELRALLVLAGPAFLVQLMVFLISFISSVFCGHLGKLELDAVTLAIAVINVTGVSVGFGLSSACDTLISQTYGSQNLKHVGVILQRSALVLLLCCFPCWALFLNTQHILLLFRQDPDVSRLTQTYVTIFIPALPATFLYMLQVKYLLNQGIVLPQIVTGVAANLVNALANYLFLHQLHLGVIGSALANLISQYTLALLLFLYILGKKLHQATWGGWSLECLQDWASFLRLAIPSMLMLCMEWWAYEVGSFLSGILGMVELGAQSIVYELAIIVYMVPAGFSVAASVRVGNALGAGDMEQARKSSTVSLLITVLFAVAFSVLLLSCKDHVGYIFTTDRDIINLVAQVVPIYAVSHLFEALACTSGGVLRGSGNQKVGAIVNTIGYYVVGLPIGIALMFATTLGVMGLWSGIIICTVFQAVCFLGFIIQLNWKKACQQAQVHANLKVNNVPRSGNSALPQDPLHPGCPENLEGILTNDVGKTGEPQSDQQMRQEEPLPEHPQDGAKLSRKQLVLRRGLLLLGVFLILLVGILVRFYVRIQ
assay.overview: Inhibition of MATE1 (unknown origin)
Format: ADME
metric.name: IC50
Could you give the number and then its unit, please?

What value of measured IC50 is listed for CCS(=O)(=O)c1ccc2oc(-c3ccc4c(c3)C=C[C@H](O)[C@H]4O)nc2c1 ?
10 µM
